Provide the reported IC50 of each item.
- TARGET: HCV polymerase (Hepatitis C virus genotype 1b, UniProt P26663)
- Construct: 2.5 pmoles (0.15 μg) HCV polymerase protein in a final volume of 75 μL
- Sequence (P26663 2420-3010): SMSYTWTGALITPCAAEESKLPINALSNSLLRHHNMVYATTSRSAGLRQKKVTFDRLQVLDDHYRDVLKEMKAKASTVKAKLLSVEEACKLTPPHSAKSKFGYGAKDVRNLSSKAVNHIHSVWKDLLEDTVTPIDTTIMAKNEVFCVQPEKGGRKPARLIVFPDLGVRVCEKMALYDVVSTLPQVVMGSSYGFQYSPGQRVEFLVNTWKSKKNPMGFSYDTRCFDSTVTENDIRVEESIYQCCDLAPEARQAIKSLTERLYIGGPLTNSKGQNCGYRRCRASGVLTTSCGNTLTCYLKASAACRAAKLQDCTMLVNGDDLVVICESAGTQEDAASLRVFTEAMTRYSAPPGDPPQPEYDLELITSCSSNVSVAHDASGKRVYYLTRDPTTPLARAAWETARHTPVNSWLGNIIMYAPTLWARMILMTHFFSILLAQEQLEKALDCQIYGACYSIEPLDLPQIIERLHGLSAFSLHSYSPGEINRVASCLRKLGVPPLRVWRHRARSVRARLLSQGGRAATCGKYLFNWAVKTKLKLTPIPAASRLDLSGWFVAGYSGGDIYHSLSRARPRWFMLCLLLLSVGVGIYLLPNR
- ASSAY TEXT: HCV polymerase primer/template-directed transcription assay (32P-GTP incorporation, filter binding)
- Format: biochemical
- PROTOCOL CONDITIONS: recombinant HCV polymerase; 30 minutes at 30° C.; concentration giving 50% inhibition of polymerase-directed transcription; read-out: IC50
Could you give the number and then its unit, please?

So, COc1ccc(CCC2(C3CCCC3)CC(O)=C(Cc3nc4ncc(Cl)cn4n3)C(=O)O2)c(OC)c1 (stereo not shown) ? Its IC50 was 70 nM

So, N#CC1(c2ccc(CCC3(C4CCCC4)CC(=O)CC(=O)O3)cc2F)CCC1 (stereo not shown) [A(92)] ? Its IC50 was 1000 nM

So, Cc1cc(C)n2nc(CC3=C(O)CC(CCc4ccc(C5(C#N)CC5)c(F)c4)(C4CCCC4)OC3=O)nc2n1 (stereo not shown) ? Its IC50 was 1 nM

So, CC(C)(C#N)c1c(F)cc(CCC2(C3CCCC3)CC(O)=C(Cc3nc4ncc(Cl)cn4n3)C(=O)O2)cc1F (stereo not shown) [A(142)] ? Its IC50 was 4 nM

###

Provide the reported IC50 of each item.
- TARGET: HCV polymerase (Hepatitis C virus genotype 1b)
- Construct: 2.5 pmoles (0.15 μg) HCV polymerase protein in a final volume of 75 μL
- ASSAY TEXT: HCV polymerase primer/template-directed transcription assay (32P-GTP incorporation, filter binding)
- Format: biochemical
- PROTOCOL CONDITIONS: recombinant HCV polymerase; 30 minutes at 30° C.; concentration giving 50% inhibition of polymerase-directed transcription; read-out: IC50
Form entry: value (nM) — number only.

So, COc1ccc(CCC2(C3CCCC3)CC(O)=C(Sc3nc4ncnc(O)c4[nH]3)C(=O)O2)cc1Cl (stereo not drawn) ? Its IC50 was 40

So, Cc1cc(C)n2nc(CC3=C(O)CC(CCc4ccc(CCO)c(F)c4)(C4CCCC4)OC3=O)nc2n1 (stereo not drawn) ? Its IC50 was 1200

So, COC1=CC(=O)OC(CCc2ccc(OC)c(Cl)c2)(C2CCCC2)C1 (stereo not drawn) ? Its IC50 was 29000

So, CC(C)(C#N)c1c(F)cc(CCC2(C3CCCC3)CC(O)=C(Cc3nc4ncc(Cl)cn4n3)C(=O)O2)cc1F (single isomer, unassigned; (-)) [A(260)] ? Its IC50 was 7

So, Cc1cc(C)n2nc(CC3=C(O)CC(CCc4ccc5c(c4)OCCO5)(C4CCCC4)OC3=O)nc2n1 (stereo not drawn) ? Its IC50 was 42

So, COc1ccc(CCC2(C3CCCC3)CC(O)=C(Sc3nnc(-c4ccco4)n3C)C(=O)O2)cc1Cl (stereo not drawn) ? Its IC50 was 13

So, CCc1cccc(CCC2(C3CCCC3)CC(O)=C(Cc3nc4nc(C)cc(C)n4n3)C(=O)O2)c1 (stereo not drawn) [B(12)] ? Its IC50 was 26

So, COc1ccc(CCC2(C3CCCC3)CC(O)=C(Cc3nc4ccccc4c(=O)[nH]3)C(=O)O2)cc1Cl (stereo not drawn) ? Its IC50 was 150

So, COc1ccc(CCC2(C3CCCC3)CC(O)=C(Cc3nc4cc(OC)c(OC)cc4c(=O)[nH]3)C(=O)O2)cc1Cl (stereo not drawn) ? Its IC50 was 50

So, N#Cc1ccccc1CCC1(C2CCCC2)CC(=O)CC(=O)O1 (stereo not drawn) ? Its IC50 was 73000

So, CCOc1ccc(CCC2(C3CCCC3)CC(O)=C(Cc3nc4nc(C)cc(C)n4n3)C(=O)O2)cc1C (stereo not drawn) ? Its IC50 was 53

So, Cc1cnc2nc(CC3=C(O)CC(CCc4ccc(C(C)(C)O)c(F)c4)(C4CCCC4)OC3=O)nn2c1 (stereo not drawn) ? Its IC50 was 45

So, CCc1cc(CCC2(C3CCCC3)CC(O)=C(Cc3nc4nc(C)cc(C)n4n3)C(=O)O2)c(OC)cc1O (single isomer, unassigned) [A(154)] ? Its IC50 was 5

So, CCc1cccc(CCC2(C3CCCC3)CC(O)=C(Cc3nc4nc(C)cc(C)n4n3)C(=O)O2)c1 (single isomer, unassigned) [J(8)] ? Its IC50 was 14

So, COc1ccc(CCC2(C3CCCC3)CC(=O)C(Cc3nccs3)C(=O)O2)cc1Cl (stereo not drawn) ? Its IC50 was 800
